Origin of values: paper doi:10.1101/2022.02.04.479134

Tested on: SARS-CoV-2 spike pseudotyped particles (Delta variant B.1.617.2) entry into Calu-3 cells
Experiment: microbe, parasite or virus in culture
Format: cell-based
Details: Severe acute respiratory syndrome coronavirus 2, Calu-3, Calu-3 cells; apparent, due to cytotoxicity; read-out: IC50 inhibition of viral entry (variant not stated)
RECORDED_ENDPOINT: IC50

Record summary for CC(C)C[C@H](NC(=O)[C@H](Cc1ccccc1)NC(=O)c1cnccn1)B(O)O : reported IC50 = < 50 nM

----------
System: SARS-CoV-2 spike pseudotyped particles (WA1 + D614G) entry into Calu-3 cells
Format: cell-based
Conditions: read-out: SARS-CoV-2 PP (WA1 + D614G) AC50
Where a name gives a salt, the structure may show the parent alone.
Parameter: AC50. Scope: all listed entries.
Number only, in µM; omit the unit.

CN(C)C(=O)COC(=O)Cc1ccc(OC(=O)c2ccc(NC(=N)N)cc2)cc1 :: 0.05
N=C(N)c1ccc2nc(-c3cc(CC(=O)N[C@@H](CC(=O)O)C(=O)O)cc(-c4cc(S(N)(=O)=O)ccc4O)c3O)[nH]c2c1 :: 16.5
COC(=O)[C@H](Cc1cccc(C(=N)N)c1)[C@@H](C)NC(=O)c1ccc(-c2cc[n+]([O-])cc2)cc1 :: 20
N=C(N)c1cccc(CC(NS(=O)(=O)c2cccc(-c3ccc(Cl)cc3Cl)c2)C(=O)N2CCC(CCN)CC2)c1 (stereo not shown) :: 2.05
COC(=O)N[C@H](C(=O)N1CCC[C@H]1c1nc(-c2ccc(-c3ccc(-c4c[nH]c([C@@H]5CCCN5C(=O)[C@@H](NC(=O)OC)C(C)C)n4)cc3)cc2)c[nH]1)C(C)C [Daclatasvir dihydrochloride] :: 39

Next compound, please.
Record summary for N=C(N)c1cccc(CC(NS(=O)(=O)c2cccc(-c3ccc(Cl)cc3Cl)c2)C(=O)N2CCC(NC(=O)NC3CCCCC3)CC2)c1 (stereo not shown) : reported AC50 = 5.35

----------
Parameter: Emax. Scope: all listed entries.
Test system: SARS-CoV-2 spike pseudotyped particles (Delta variant B.1.617.2) entry into Calu-3 cells
Test: microbe, parasite or virus in culture
Assay type: cell-based
Details: Severe acute respiratory syndrome coronavirus 2, Calu-3, read-out: SARS-CoV-2 PP (Delta) Max Response
Counter-ions that a name gives are not always drawn.

N=C(N)c1cccc(CC(NS(=O)(=O)c2cccc(-c3ccc(Cl)cc3Cl)c2)C(=O)N2CCC(NC(=O)NC3CCCCC3)CC2)c1 (stereo not shown) [Cmpd 114 (Meyer)] :: 99%

Bench note, SARS-CoV-2 spike pseudotyped particles (Delta variant B.1.617.2) entry into Calu-3 cells: COC(=O)[C@H](Cc1cccc(C(=N)N)c1)[C@@H](C)NC(=O)c1ccc(-c2cc[n+]([O-])cc2)cc1 [Otamixaban] , Emax reads 54%

Bench note, SARS-CoV-2 spike pseudotyped particles (Delta variant B.1.617.2) entry into Calu-3 cells: CN(C)C(=O)COC(=O)Cc1ccc(OC(=O)c2ccc(NC(=N)N)cc2)cc1 [Camostat] , Emax reads -92%

Bench note, SARS-CoV-2 spike pseudotyped particles (Delta variant B.1.617.2) entry into Calu-3 cells: NC[C@H]1CC[C@H](C(=O)Oc2ccc(CCC(=O)O)cc2)CC1 [Cetraxate HCl] , Emax reads 30%

----------
Test system: SARS-CoV-2 spike pseudotyped particles (Delta variant B.1.617.2) entry into Calu-3 cells
Assay: microbe, parasite or virus in culture
Format: cell-based
Conditions: Severe acute respiratory syndrome coronavirus 2, Calu-3, read-out: SARS-CoV-2 PP (Delta) Max Response
Counter-ions that a name gives are not always drawn.
RECORDED_ENDPOINT: Emax (%)
Number only, in %; omit the unit.

Solved entries:
N=C(N)c1cccc(CC(NS(=O)(=O)c2cccc(-c3ccc(Cl)cc3Cl)c2)C(=O)N2CCC(CCN)CC2)c1 (centres unmarked) :: 92
CC(C)C[C@H](NC(=O)[C@H](Cc1ccccc1)NC(=O)c1cnccn1)B(O)O :: -100
N=C(N)c1ccc2nc(-c3cc(CC(=O)N[C@@H](CC(=O)O)C(=O)O)cc(-c4cc(S(N)(=O)=O)ccc4O)c3O)[nH]c2c1 :: -66
N=C(N)c1ccc2cc(OC(=O)c3ccc(N=C(N)N)cc3)ccc2c1 [Nafamostat mesilate] :: -100

Record summary for COC(=O)N[C@H](C(=O)N1CCC[C@H]1c1nc(-c2ccc(-c3ccc(-c4c[nH]c([C@@H]5CCCN5C(=O)[C@@H](NC(=O)OC)C(C)C)n4)cc3)cc2)c[nH]1)C(C)C [Daclatasvir dihydrochloride] : reported Emax = -100
